thermal stability score overview
Test system: HeLa Kyoto
PROTOCOL: thermal stability score vs G1/S (z-score of summed log2 fold changes over temperatures); higher = more thermally stable than in G1/S
MEASUREMENT CONTEXT: cell cycle stage: early G1 (4.5 h after nocodazole release)
The answer should be a number; do not append a unit.

>  <SUBSTANCE>
MAMQMQLEANADTSVEEESFGPQPISRLEQCGINANDVKKLEEAGFHTVEAVAYAPKKELINIKGISEAKADKILAEAAKLVPMGFTTATEFHQRRSEIIQITTGSKELDKLLQGGIETGSITEMFGEFRTGKTQICHTLAVTCQLPIDRGGGEGKAMYIDTEGTFRPERLLAVAERYGLSGSDVLDNVAYARAFNTDHQTQLLYQASAMMVESRYALLIVDSATALYRTDYSGRGELSARQMHLARFLRMLLRLADEFGVAVVITNQVVAQVDGAAMFAADPKKPIGGNIIAHASTTRLYLRKGRGETRICKIYDSPCLPEAEAMFAINADGVGDAKD [RAD51]

>  <MEASUREMENT TARGET>
HeLa Kyoto;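 further: synchronized HeLa Kyoto cells, proteins quantified by TMT10plex mass spectrometry, three biological replicates, mitosis taken 0.5 h after nocodazole release, G1/S directly after double thymidine block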

>  <thermal stability score>
-1.12

$$$$

[Q] Give HeLa Kyoto thermal stability score for MVLSELAARLNCAEYKNWVKAGHCLLLLRSCLQGFVGREVLSFHRGLLAAAPGLGPRAVCRGGSRCSPRARQFQPQCQVCAEWKREILRHHVNRNGDVHWGNCRPGRWPVDAWEVAKAFMPRGLADKQGPEECDAVALLSLINSCDHFVVDRKKVTEVIKCRNEIMHSSEMKVSSTWLRDFQMKIQNFLNEFKNIPEIVAVYSRIEQLLTSDWAVHIPEEDQRDGCECEMGTYLSESQVNEIEMQLLKEKLQEIYLQAEEQEVLPEELSNRLEVVKEFLRNNEDLRNGLTEDMQKLDSLCLHQKLDSQEPGRQTPDRKA [CXORF38]
[A] -0.304

[Q] Query the reported thermal stability score for HeLa Kyoto; item: MAQVLRGTVTDFPGFDERADAETLRKAMKGLGTDEESILTLLTSRSNAQRQEISAAFKTLFGRDLLDDLKSELTGKFEKLIVALMKPSRLYDAYELKHALKGAGTNEKVLTEIIASRTPEELRAIKQVYEEEYGSSLEDDVVGDTSGYYQRMLVVLLQANRDPDAGIDEAQVEQDAQALFQAGELKWGTDEEKFITIFGTRSVSHLRKVFDKYMTISGFQIEETIDRETSGNLEQLLLAVVKSIRSIPAYLAETLYYAMKGAGTDDHTLIRVMVSRSEIDLFNIRKEFRKNFATSLYSMIKGDTSGDYKKALLLLCGEDD [ANXA5]
[A] 5.64
